# System: P388
# protocol-summary: Dose required to inhibit cell growth was determined against P388D1 cell line of murine lymphocytotic leukemia
# Format: functional, cell-based
# condition-set: Mus musculus
Quick reference: IC50 of the listed items.
Your answer should be a plain number; it is taken to be in µM.

Answered cases to consult:
compound | measured
CCc1ccc(NC(=O)NCCCl)cc1 | 5.2
CCC(C)c1ccc(NC(=O)NCCCl)cc1 (centres undefined) | 2.4
O=C(NCCCl)Nc1cccc2ccccc12 | 130
CCCCc1ccc(NC(=O)NCCCl)cc1 | 10
O=C(O)CCCc1ccc(N(CCCl)CCCl)cc1 [CHLORAMBUCIL] | 7

Cc1ccc(NC(=O)NCCCl)cc1 has a reported IC50 of 30

CC(C)c1ccc(NC(=O)NCCCl)cc1 has a reported IC50 of 2.1

O=C(NCCCl)Nc1cccc(I)c1 has a reported IC50 of 34

O=C(NCCCl)Nc1ccc(Cl)cc1 has a reported IC50 of 11

Cc1ccc(NC(=O)NCCCl)cc1C has a reported IC50 of 4.2

O=C(NCCCl)Nc1ccc2c(c1)CCC2 has a reported IC50 of 7.3

O=C(NCCCl)Nc1ccc(C2CCCCC2)cc1 has a reported IC50 of 22

CCCCCCc1ccc(NC(=O)NCCCl)cc1 has a reported IC50 of 8.2

Cc1cccc(NC(=O)NCCCl)c1 has a reported IC50 of 75

CCCCCc1ccc(NC(=O)NCCCl)cc1 has a reported IC50 of 7.3

Cc1cc(C)cc(NC(=O)NCCCl)c1 has a reported IC50 of 8.6

O=C(NCCCl)Nc1ccc(I)cc1 has a reported IC50 of 5.4

CCCc1ccc(NC(=O)NCCCl)cc1 has a reported IC50 of 11

CCCCCCCc1ccc(NC(=O)NCCCl)cc1 has a reported IC50 of 18

O=C(NCCCl)Nc1ccc(Br)cc1 has a reported IC50 of 10

O=NN(CCCl)C(=O)NCCCl [CARMUSTINE] has a reported IC50 of 5.9

CCCCCCCCc1ccc(NC(=O)NCCCl)cc1 has a reported IC50 of 32

CC(C)(C)c1ccc(NC(=O)NCCCl)cc1 has a reported IC50 of 5.2

O=C(NCCCl)Nc1ccc2ccccc2c1 has a reported IC50 of 5.3
